Sourced from the supplement of paper PMC11865577

Could you please report measured normalised indicator fluorescence for the items listed next?
# Test system: hsa-mir-374a loop
# EXPERIMENTAL_DETAILS: normalised indicator fluorescence (fraction of RNA + indicator signal without compound); higher = less displacement of indicator (weaker competition)
# CONDITION_DETAILS: compound concentration: 5 uM; 30 min; indicator: TO-PRO-3 0.5 uM; RNA concentration: 0.5 uM
One number for each entry.

Dear colleague, could you send me normalised indicator fluorescence for each of the items below? Thanks.
1. Cn1cc(-c2ccc3c(c2)CCN3C(=O)Cc2cccc(C(F)(F)F)c2)c2c(N)ncnc21
2. [I-].[K+] [Potassium iodide]
3. C/C1=C/CC[C@H](C)C(=O)C[C@@H](C(C)C)C(=O)C1
4. COc1nccnc1NS(=O)(=O)c1ccc(NC(=O)/C=C/c2ccc([N+](=O)[O-])s2)cc1 [Necrosulfonamide]

Resp:
[1.18, 1.05, 1.26, 1.18]

Dear colleague, could you send me normalised indicator fluorescence for each of the items below? Thanks.
1. CCNC(=O)c1[nH]nc(-c2cc(Cl)c(O)cc2O)c1-c1ccc(OC)cc1
2. C[C@@H]1O[C@@H](Oc2c(-c3cc(O)c(O)c(O)c3)oc3cc(O)cc(O)c3c2=O)[C@H](O)[C@H](O)[C@H]1O
3. OC[C@H]1O[C@@H](Oc2ccc(O)cc2)[C@H](O)[C@@H](O)[C@@H]1O

Resp:
1: 1.11; 2: 1.17; 3: 1.04

Dear colleague, could you send me normalised indicator fluorescence for each of the items below? Thanks.
1. O=c1cc(-c2ccccc2)oc2cc(O)c(O)c(O)c12
2. COC1=CC(=O)c2ccccc2C1=O

Resp:
0.91
1.19

###

# Test system: hsa-mir-374a loop
# EXPERIMENTAL_DETAILS: normalised indicator fluorescence (fraction of RNA + indicator signal without compound); higher = less displacement of indicator (weaker competition)
# CONDITION_DETAILS: compound concentration: 5 uM; 30 min; indicator: TO-PRO-1 0.1 uM; RNA concentration: 0.1 uM
Structures can show the parent of a compound that is named as a salt.
MEASURE: normalised indicator fluorescence
Give bare numbers.

A selection of reference data follows.
COc1ccc(C2CC(=O)c3c(O)cc(OC4OC(COC5OC(C)C(O)C(O)C5O)C(O)C(O)C4O)cc3O2)cc1OC (centres undefined) [Methyl hesperidin]
1.14
Oc1ccc(-c2nc(-c3ccc(F)cc3)c(-c3ccncc3)[nH]2)cc1
1.09
Fc1ccc(-c2nc3n(c2-c2ccncc2)CCS3)cc1
1.09
[I-].[K+] [Potassium iodide]
1.21

Dear colleague, could you send me normalised indicator fluorescence for each of the items below? Thanks.
1. COc1ccc(C(=C2C(=O)Nc3ccccc32)c2ccc(OC)cc2)cc1
2. COc1c(C)cnc(Cn2cnc3c(Cl)nc(N)nc32)c1C
3. Oc1cc(O)c2c(c1)O[C@H](c1ccc(O)c(O)c1)[C@@H](O)C2 [Cianidanol]
4. CCOc1cc(C(=O)N2CCC(N3CCN(C)CC3)CC2)ccc1Nc1ncc2c(n1)N(C1CCCC1)c1ccccc1C(=O)N2C
5. CN(C)CCCN1c2ccccc2CCc2ccc(Cl)cc21 [Clomipramine hydrochloride]

Resp:
[1.08, 1.19, 1.26, 1.07, 1.14]

###

Could you please report measured normalised indicator fluorescence for the items listed next?
# System: hsa-mir-6850 loop
# EXPERIMENTAL_DETAILS: normalised indicator fluorescence (fraction of RNA + indicator signal without compound); higher = less displacement of indicator (weaker competition)
# CONDITION_DETAILS: compound concentration: 5 uM; 30 min; indicator: TO-PRO-3 0.5 uM; RNA concentration: 0.5 uM
Answers are plain numbers.

CC(=O)O[C@H]1C[C@@]2(C)[C@@H](C[C@@H](O)[C@H]3[C@@]4(C)CC[C@@H](O)[C@@H](C)[C@@H]4CC[C@@]32C)/C1=C(\CCC=C(C)C)C(=O)O [Fusidine]
1.06
Cc1c(C)c2c(c(C)c1O)CC[C@@](C)(CCC[C@H](C)CCC[C@H](C)CCCC(C)C)O2 [Vitamin E]
1.03
O=C(O)CCc1ccc(O)cc1O [Hydroumbellic acid]
1.04

Dear colleague, could you send me normalised indicator fluorescence for each of the items below? Thanks.
1. NC(=O)c1ccc(N(C(N)=O)c2c(F)cccc2F)nc1-c1ccc(F)cc1F
2. O=C(O)/C=C/c1ccc(Cn2ccnc2)cc1 [Ozagrel]

Resp:
1: 1.03; 2: 1.03

Dear colleague, could you send me normalised indicator fluorescence for each of the items below? Thanks.
1. CC1=C[C@]2(O)O[C@@]3(CC2=C(C)C)[C@@H](C)CC[C@@H]13 [Curcumenol]
2. COC1=C2C[C@@H](C)C[C@H](OC)[C@H](O)[C@@H](C)/C=C(\C)[C@H](OC(N)=O)[C@@H](OC)/C=C\C=C(/C)C(=O)NC(=CC1=O)C2=O [Geldanamycin]
3. COc1ccc(-c2nc(-c3cc(C(F)(F)F)cc(C(F)(F)F)c3)n(Cc3ccc(C(N)=O)cc3)c2-c2ccc(OC)cc2)cc1 [Apoptozole]
4. Oc1ccc(OC2CCCCO2)cc1 (stereo not given) [Deoxyarbutin]
5. CCNC(=O)c1noc(-c2cc(C(C)C)c(O)cc2O)c1-c1ccc(CN2CCOCC2)cc1 [Luminespib]

Resp:
1: 0.985; 2: 1.02; 3: 0.976; 4: 1; 5: 1.06
